Origin of measurements: patent EP1038864A1

- test_description: Assay for Oral Absorption in Rat (plasma level by MMP-3 inhibition bioassay)
- measurement_parameters: male, Lewis, rat, po, 100 mg/kg
Please respond with reported AUC for every item in the list.
Numbers only, in ng·h/mL.

Would you please look over these solved cases?
* CNC(=O)C(Cc1ccc(CNC(C)=N)cc1)NC(=O)C(CC(C)C)C(C)C(=O)NO (single isomer, unassigned) [Compound No. 41] | 3130
* CC(=N)NCc1ccc(CC(NC(=O)C(CC(C)C)C(C)C(=O)NO)C(=O)NN2CCOCC2)cc1 (single isomer, unassigned) [Compound No. 42] | 6260

Next item in the queue.
Query: What does the record list as AUC for CNC(=O)C(CCCN)NC(=O)C(CC(C)C)C(CCCc1ccc(NC(=N)N)cc1)C(=O)NO (stereo not drawn) [Compound No. 46] ?
Response: 3380

---

- test_target: TNF-α Convertase (Homo sapiens, UniProt P78536)
- Sequence (P78536 215-824): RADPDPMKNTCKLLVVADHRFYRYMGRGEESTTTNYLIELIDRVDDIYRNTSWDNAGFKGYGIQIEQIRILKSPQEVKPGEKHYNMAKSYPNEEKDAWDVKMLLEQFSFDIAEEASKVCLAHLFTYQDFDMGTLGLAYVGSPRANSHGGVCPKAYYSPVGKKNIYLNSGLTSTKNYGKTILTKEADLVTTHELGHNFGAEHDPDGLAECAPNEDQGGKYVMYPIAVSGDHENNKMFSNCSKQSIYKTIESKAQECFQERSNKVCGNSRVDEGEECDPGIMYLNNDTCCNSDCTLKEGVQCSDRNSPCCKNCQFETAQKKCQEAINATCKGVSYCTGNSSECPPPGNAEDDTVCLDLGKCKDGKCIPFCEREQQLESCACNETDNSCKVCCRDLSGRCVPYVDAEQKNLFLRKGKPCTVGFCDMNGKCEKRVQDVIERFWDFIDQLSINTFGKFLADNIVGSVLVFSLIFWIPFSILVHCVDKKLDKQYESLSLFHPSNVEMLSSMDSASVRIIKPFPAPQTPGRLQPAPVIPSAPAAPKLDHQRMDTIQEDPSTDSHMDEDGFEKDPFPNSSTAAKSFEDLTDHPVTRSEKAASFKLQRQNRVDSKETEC
- test_description: Assay for inhibition of TNF-α production in LPS-stimulated, PMA-differentiated U937 cells
Please go through the items and note down their pIC50.
Answers are plain numbers, as −log10 of the molar value.

# example entries with known answers
* CNC(=O)[C@H](CCCCN)NC(=O)[C@H](CC(C)C)C(CCCc1ccc(O)cc1)C(=O)NO (single isomer, unassigned) [Compound No. 72] | 6.60
* CNC(=O)C(CCCNC(=N)N)NC(=O)C(CC(C)C)C(Cc1ccc(CNS(=O)(=O)c2ccc(C)cc2)cc1)C(=O)NO (single isomer, unassigned) [Compound No. 50] | 6.22
* CNC(=O)C(Cc1ccc(CNC(C)=N)cc1)NC(=O)C(CC(C)C)C(C)C(=O)NO (single isomer, unassigned) [Compound No. 41] | 5.99
* CNC(=O)[C@H](CCCCN)NC(=O)[C@H](CC(C)C)C(CCCc1ccc(C(=O)O)cc1)C(=O)NO (single isomer, unassigned) [Compound No. 67] | 6.28
* CC(=N)NCCCCC(NC(=O)C(CC(C)C)C(CCCc1ccccc1)C(=O)NO)C(=O)NCCN(C)C (stereo not drawn) [Compound No. 44] | 6.89

Turning now to a further compound:
Query: Please report the recorded pIC50 for CNC(=O)C(CCCN)NC(=O)C(CC(C)C)C(CCCc1ccc(NC(=N)N)cc1)C(=O)NO (stereo not drawn) [Compound No. 46] .
Response: 6.34

---

- test_target: human fibroblast collagenase (Homo sapiens)
- test_description: Assay for inhibition of collagenase (fluorescein-labeled bovine type I collagen substrate)
- Assay type: biochemical
- measurement_parameters: activated human fibroblast procollagenase, 35°C, 2 hours, pH 7.5; read-out: Inhibition of MMP-1
- Description: Described below are assays for biological activities of the compounds according to the present invention, formulations, dosage forms and dosage levels thereof, and miscellaneous matters. The efficacy of the compounds represented by the formula (I) according to the present invention as inhibitors of human fibroblast collagenase (metalloproteinase involved in the breakdown of tissues) is determined by a procedure based on the method of Y. Murawaki et al., Journal of Hepatology, 18, p328-334 (1993). […]
measurement_label: pIC50
Numbers only, as −log10 of the molar value.

* CNC(=O)C(CCCNC(=N)N)NC(=O)C(CC(C)C)C(Cc1ccc(CN2C(=O)c3ccccc3C2=O)cc1)C(=O)NO (single isomer, unassigned) | 8.05
* CNC(=O)C(CCCCNC(C)=N)NC(=O)C(CC(C)C)C(CCCc1ccccc1)C(=O)NO (stereo not shown) | 8.00
* CNC(=O)C(CCCN)NC(=O)C(CC(C)C)C(CCCc1ccc(CNC(=N)N)cc1)C(=O)NO (single isomer, unassigned) | 7.89
* CNC(=O)C(CCNC(=N)N)NC(=O)C(CC(C)C)C(CC(C)C)C(=O)NO (stereo not shown) | 8.15
* CNC(=O)C(CCNC(=N)N)NC(=O)C(CC(C)C)C(C)C(=O)NO (single isomer, unassigned) | 8.00

Answer for every listed entry: what is its pIC50? The entries follow.
1. CNC(=O)[C@H](CCCCN)NC(=O)[C@H](CC(C)C)C(CCCc1cccc(C(=O)OC)c1)C(=O)NO (single isomer, unassigned)
2. CNC(=O)C(CCCCN)NC(=O)C(CC(C)C)C(CCCN1C(=O)N(C)C(C)(C)C1=O)C(=O)NO (single isomer, unassigned)
3. CC(=N)NCCCCC(NC(=O)C(CC(C)C)C(CCCc1ccccc1)C(=O)NO)C(=O)NCCO (single isomer, unassigned)
4. CNC(=O)[C@H](CCCN)NC(=O)[C@H](CC(C)C)C(CCCc1ccc(CN)cc1)C(=O)NO (single isomer, unassigned)
5. CNC(=O)[C@H](CCCCN)NC(=O)[C@H](CC(C)C)C(CCCN1CCOCC1)C(=O)NO (single isomer, unassigned)
6. CNC(=O)C(CCCNC(=N)N)NC(=O)C(CC(C)C)C(C)C(=O)NO (stereo not shown)
7. CNC(=O)[C@@H](NC(=O)[C@H](CC(C)C)C(CCCc1ccc(CN)cc1)C(=O)NO)C(C)(C)C (single isomer, unassigned)

Response:
1: 8.40; 2: 8.40; 3: 7.85; 4: 8.05; 5: 7.96; 6: 8.00; 7: 8.30

Query: Quick one: pIC50 of CC(=N)NCc1ccc(CC(NC(=O)C(CC(C)C)C(CC(C)C)C(=O)NO)C(=O)NCCO)cc1 (stereo not shown) ?
Response: 7.77

---

- test_target: human fibroblast stromelysin (Homo sapiens)
- Sequence (P08254 100-477): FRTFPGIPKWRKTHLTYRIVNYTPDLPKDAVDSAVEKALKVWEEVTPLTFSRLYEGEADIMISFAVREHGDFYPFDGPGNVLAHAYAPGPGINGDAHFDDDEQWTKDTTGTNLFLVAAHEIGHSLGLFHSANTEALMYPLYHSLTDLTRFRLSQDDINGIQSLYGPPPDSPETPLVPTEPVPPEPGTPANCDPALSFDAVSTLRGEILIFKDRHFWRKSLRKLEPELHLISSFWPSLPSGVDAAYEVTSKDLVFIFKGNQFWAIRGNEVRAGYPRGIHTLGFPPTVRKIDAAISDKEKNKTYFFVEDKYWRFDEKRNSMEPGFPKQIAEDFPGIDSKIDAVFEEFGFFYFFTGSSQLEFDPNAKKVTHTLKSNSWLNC
- test_description: Assay for inhibition of stromelysin (fluorescein-labeled casein substrate)
- Assay type: biochemical
Field: IC50. Provide a value for each of the compounds that follow.
Answer format: value, then unit.

For orientation, consider the following solved cases.
* CNC(=O)[C@H](CCCCN)NC(=O)[C@H](CC(C)C)C(CCOCC(C)C)C(=O)NO (single isomer, unassigned) | 0.028 µM
* CNC(=O)[C@H](CCCNC(=N)N)NC(=O)[C@H](CC(C)C)C(CC(C)C)C(=O)NO (single isomer, unassigned) | 0.018 µM
* CNC(=O)[C@H](CCCNC(=N)N)NC(=O)[C@H](CC(C)C)C(CCOc1ccccc1)C(=O)NO (single isomer, unassigned) | 0.01 µM
* CNC(=O)[C@H](CCCCN)NC(=O)[C@H](CC(C)C)C(CCCCCCCCO)C(=O)NO (single isomer, unassigned) | 0.014 µM
* CNC(=O)[C@H](CCCNC(=N)N)NC(=O)[C@H](CC(C)C)C(Cc1ccc(CNS(C)(=O)=O)cc1)C(=O)NO (single isomer, unassigned) | 0.023 µM

Query: Need IC50, item CNC(=O)C(CCNC(=N)N)NC(=O)C(CC(C)C)C(CCCc1ccccc1)C(=O)NO (stereo not drawn)
Response: 0.04 µM

---

Give IC50 for every item shown.
- test_target: human fibroblast collagenase (Homo sapiens, UniProt P03956)
- Sequence (P03956 100-469): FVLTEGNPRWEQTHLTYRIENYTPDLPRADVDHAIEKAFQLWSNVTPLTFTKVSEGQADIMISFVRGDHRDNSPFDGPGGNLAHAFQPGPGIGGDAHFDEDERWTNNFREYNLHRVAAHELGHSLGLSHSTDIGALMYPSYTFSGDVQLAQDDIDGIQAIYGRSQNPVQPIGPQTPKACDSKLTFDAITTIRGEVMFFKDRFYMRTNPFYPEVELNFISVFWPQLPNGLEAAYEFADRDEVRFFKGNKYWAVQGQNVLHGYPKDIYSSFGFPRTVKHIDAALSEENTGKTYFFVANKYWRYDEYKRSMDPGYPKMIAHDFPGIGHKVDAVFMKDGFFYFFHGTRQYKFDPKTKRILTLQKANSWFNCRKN
- test_description: Assay for inhibition of collagenase (fluorescein-labeled bovine type I collagen substrate)
- Assay type: biochemical
- measurement_parameters: activated human fibroblast procollagenase, 35°C, 2 hours, pH 7.5; read-out: Inhibition of MMP-1
Numbers only, in nM.

Below, 2 compounds whose answers are already recorded.
• CNC(=O)[C@H](CCN)NC(=O)[C@H](CC(C)C)C(CCCc1ccc(CN)cc1)C(=O)NO (single isomer, unassigned) [Compound No. 78] = 18
• CC(C)CC(C(=O)NO)[C@@H](CC(C)C)C(=O)N[C@@H](Cc1ccc(CN)cc1)C(=O)NCCC(=O)O (single isomer, unassigned) [Compound No. 84] = 11

Batch request: IC50 per item, same order as input.
1. CNC(=O)C(CCCNC(=N)N)NC(=O)C(CC(C)C)C(Cc1ccc(CNS(=O)(=O)c2ccc(C)cc2)cc1)C(=O)NO (single isomer, unassigned) [Compound No. 50]
2. CNC(=O)C(CCCN)NC(=O)C(CC(C)C)C(CCCc1ccc(NC(=N)N)cc1)C(=O)NO (centres unmarked) [Compound No. 46]
3. CCCOC[C@H](C(=O)N[C@@H](Cc1ccc(OC)cc1)C(=O)NC)[C@H](CSC(C)C)C(=O)NO [Reference Compound No. 1, reference compound]

Response:
13
15
11
